molecular target: Ryanodine receptor 2 (Mus musculus) (UniProt E9Q401); test: Inhibition of RyR2-mediated calcium spark frequency in saponin-permeabilized left ventricular myocytes of C57BL/6J mouse at 25 uM incubated for 15 min by Fluo-4 dye based analysis; type: cell-based; settings: Ventricular myocyte
Sequence (E9Q401 whole entry): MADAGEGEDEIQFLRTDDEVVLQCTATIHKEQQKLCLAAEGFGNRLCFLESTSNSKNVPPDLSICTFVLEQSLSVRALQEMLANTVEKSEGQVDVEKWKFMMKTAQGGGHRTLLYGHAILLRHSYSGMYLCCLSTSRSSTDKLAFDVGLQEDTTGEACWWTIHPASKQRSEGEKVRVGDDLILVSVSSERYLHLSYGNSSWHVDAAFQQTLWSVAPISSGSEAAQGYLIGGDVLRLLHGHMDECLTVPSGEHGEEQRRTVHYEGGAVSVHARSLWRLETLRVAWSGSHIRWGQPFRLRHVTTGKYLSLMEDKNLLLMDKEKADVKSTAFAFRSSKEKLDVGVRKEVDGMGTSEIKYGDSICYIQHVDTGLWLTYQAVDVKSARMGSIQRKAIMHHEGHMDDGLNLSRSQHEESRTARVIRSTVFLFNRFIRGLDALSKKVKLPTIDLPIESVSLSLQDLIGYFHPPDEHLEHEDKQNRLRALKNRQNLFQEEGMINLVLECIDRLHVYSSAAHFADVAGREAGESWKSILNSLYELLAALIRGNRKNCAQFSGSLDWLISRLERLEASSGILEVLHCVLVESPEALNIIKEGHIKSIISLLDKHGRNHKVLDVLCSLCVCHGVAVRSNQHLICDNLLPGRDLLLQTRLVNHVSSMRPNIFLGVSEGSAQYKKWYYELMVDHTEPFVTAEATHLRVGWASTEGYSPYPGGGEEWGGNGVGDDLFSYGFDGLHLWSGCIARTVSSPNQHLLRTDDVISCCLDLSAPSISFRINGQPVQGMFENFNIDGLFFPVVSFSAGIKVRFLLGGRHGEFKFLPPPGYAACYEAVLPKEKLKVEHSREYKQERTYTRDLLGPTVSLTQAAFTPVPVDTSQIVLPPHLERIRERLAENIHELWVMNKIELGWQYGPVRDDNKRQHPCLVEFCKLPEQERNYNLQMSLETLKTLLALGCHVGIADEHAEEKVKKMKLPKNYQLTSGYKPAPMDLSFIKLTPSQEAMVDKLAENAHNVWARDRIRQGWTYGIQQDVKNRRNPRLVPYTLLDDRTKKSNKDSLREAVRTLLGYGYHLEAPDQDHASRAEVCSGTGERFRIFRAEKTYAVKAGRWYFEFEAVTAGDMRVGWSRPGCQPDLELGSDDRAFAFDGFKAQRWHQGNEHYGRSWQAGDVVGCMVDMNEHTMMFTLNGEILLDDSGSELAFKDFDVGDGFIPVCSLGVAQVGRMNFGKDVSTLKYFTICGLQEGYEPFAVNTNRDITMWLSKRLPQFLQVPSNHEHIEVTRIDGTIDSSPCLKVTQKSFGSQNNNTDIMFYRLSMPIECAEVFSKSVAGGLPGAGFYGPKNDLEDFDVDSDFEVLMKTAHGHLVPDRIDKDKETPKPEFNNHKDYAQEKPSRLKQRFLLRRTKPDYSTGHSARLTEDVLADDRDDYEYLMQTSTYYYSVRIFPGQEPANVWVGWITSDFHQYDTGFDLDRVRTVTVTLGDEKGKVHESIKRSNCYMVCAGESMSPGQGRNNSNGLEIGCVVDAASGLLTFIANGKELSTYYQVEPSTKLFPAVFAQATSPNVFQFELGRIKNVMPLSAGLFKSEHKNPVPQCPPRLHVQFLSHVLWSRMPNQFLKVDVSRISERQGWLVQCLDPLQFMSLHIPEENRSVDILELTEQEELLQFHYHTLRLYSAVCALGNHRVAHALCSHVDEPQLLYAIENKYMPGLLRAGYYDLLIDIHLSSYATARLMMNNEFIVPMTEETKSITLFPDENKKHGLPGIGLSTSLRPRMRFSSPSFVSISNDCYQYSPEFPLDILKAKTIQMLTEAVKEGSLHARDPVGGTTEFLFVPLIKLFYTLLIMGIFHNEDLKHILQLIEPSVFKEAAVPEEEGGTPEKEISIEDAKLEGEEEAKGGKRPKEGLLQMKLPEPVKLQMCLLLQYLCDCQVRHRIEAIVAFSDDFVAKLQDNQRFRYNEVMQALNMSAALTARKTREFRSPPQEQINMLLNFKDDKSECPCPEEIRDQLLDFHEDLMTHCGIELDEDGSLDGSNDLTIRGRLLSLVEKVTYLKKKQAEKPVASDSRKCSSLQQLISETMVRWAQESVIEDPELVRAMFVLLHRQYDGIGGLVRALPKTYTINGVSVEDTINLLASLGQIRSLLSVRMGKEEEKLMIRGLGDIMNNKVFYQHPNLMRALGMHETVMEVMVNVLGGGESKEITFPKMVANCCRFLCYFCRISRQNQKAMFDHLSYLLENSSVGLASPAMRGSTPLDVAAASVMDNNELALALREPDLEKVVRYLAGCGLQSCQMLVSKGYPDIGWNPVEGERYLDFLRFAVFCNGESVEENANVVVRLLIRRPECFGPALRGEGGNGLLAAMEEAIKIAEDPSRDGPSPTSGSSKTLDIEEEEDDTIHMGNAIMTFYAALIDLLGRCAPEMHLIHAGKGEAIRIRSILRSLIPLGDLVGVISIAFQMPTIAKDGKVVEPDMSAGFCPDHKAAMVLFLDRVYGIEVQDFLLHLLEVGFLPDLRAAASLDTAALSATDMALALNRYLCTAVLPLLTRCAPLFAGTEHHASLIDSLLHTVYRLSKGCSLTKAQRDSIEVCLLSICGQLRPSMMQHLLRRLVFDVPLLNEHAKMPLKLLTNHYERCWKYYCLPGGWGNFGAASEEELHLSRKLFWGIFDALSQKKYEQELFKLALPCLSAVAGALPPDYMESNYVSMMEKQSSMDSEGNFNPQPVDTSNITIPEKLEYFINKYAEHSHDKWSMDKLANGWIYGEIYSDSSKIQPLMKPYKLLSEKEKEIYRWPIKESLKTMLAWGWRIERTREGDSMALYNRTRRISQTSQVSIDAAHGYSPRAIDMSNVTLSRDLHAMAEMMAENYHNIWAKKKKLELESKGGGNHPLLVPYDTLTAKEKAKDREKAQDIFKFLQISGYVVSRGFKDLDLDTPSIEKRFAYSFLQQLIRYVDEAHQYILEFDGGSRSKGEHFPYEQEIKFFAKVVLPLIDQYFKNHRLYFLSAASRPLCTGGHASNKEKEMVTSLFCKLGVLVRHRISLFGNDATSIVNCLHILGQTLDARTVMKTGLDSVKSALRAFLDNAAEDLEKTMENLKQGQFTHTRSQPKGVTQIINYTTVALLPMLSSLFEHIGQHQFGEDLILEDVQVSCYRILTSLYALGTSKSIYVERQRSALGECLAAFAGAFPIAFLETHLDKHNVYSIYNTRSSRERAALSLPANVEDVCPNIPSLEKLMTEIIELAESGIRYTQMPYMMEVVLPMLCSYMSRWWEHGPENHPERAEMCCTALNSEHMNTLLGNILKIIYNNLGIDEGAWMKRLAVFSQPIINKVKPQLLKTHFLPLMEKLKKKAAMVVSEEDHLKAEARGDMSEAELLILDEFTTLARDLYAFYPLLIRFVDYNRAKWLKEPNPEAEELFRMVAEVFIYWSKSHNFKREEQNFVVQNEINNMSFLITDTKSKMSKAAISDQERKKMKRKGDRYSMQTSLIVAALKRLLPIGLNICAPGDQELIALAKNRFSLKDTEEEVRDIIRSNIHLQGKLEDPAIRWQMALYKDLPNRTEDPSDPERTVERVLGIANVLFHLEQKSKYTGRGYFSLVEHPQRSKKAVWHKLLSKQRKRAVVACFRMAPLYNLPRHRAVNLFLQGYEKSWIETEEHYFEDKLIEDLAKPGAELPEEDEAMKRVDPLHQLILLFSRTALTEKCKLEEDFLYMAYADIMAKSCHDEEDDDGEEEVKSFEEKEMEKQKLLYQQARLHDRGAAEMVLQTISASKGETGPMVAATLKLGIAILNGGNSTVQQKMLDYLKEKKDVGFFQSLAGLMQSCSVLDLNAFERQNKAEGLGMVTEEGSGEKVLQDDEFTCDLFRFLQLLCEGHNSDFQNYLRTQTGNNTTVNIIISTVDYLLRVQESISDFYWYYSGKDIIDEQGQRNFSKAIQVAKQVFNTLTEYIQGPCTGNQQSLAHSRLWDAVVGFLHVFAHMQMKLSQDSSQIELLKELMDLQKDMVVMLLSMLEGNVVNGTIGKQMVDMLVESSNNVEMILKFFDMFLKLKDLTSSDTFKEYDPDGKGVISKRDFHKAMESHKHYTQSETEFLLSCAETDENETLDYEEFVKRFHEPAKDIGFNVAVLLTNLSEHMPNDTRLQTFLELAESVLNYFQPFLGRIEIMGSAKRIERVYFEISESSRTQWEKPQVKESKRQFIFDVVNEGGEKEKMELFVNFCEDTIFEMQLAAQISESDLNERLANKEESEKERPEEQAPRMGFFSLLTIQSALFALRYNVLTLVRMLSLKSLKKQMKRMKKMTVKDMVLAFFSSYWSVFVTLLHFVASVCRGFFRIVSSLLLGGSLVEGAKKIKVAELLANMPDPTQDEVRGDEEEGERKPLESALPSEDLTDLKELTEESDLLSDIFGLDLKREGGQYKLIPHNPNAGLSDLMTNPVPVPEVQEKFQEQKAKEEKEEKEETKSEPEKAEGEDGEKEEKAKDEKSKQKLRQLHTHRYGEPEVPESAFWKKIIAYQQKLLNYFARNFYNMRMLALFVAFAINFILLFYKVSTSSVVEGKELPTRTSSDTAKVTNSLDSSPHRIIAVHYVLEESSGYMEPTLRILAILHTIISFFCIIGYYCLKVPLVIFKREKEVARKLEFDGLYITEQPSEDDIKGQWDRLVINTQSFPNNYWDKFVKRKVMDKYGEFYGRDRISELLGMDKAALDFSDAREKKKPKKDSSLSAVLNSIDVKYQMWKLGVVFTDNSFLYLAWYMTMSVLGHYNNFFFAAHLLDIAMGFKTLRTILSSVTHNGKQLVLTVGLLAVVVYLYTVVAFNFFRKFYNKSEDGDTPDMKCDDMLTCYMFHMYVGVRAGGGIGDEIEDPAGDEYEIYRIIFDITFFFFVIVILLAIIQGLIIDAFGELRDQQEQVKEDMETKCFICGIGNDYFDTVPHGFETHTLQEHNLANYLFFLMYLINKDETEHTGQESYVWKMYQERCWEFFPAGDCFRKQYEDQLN
Calls of active or inactive are those of the source. The rule behind the calls is not given here. Numbered stars: 1 amine (or outer) side, 2 acyl side, 3 side chain; on linkers, the order of the positions; unused ones are H or OH. Square brackets hold non-standard residues; d marks the D form. Peptide text beside a SMILES is read from it. X1 = CCCCC[C@H](O[*:1])C(=O)[*:2]; NMeAhp(2) = CCCCC[C@H](NC)C(=O)O; Ahp(2) = CCCCC[C@H](N)C(=O)O; dNMeA = CN[C@H](C)C(=O)O
Your answer must be one of the following: active, inactive

Consider the worked cases shown below.
- compound: "CCCCC[C@@H]1NC(=O)[C@@H](C)N(C)C(=O)[C@H](CCCCC)NC(=O)[C@@H](C)N(C)C(=O)[C@H](CCCCC)OC(=O)[C@@H](C)N(C)C(=O)[C@H](CCCCC)NC(=O)[C@@H](C)N(C)C1=O (cyclo([Ahp(2)][dNMeA][Ahp(2)][dNMeA][Ahp(2)][dNMeA][X1][dNMeA]))"
  class assignment: "inactive"
- compound: "CCCCC[C@H]1C(=O)N[C@H](C)C(=O)N(C)[C@@H](CCCCC)C(=O)N[C@H](C)C(=O)N(C)[C@@H](CCCCC)C(=O)N(C)[C@H](C)C(=O)N(C)[C@@H](CCCCC)C(=O)N(C)[C@H](C)C(=O)N1C (cyclo([NMeAhp(2)][dA][NMeAhp(2)][dA][NMeAhp(2)][dNMeA][NMeAhp(2)][dNMeA]))"
  class assignment: "inactive"
- compound: "CCCCC[C@@H]1OC(=O)[C@@H](C)N(C)C(=O)[C@H](CCCCC)N(C)C(=O)[C@@H](C)N(C)C(=O)[C@H](CCCCC)N(C)C(=O)[C@@H](C)N(C)C(=O)[C@H](CCCCC)N(C)C(=O)[C@@H](C)N(C)C1=O"
  class assignment: "inactive"
- compound: "CCCCC[C@@H]1NC(=O)[C@@H](C)N(C)C(=O)[C@H](CCCCC)N(C)C(=O)[C@@H](C)N(C)C(=O)[C@H](CCCCC)N(C)C(=O)[C@@H](C)N(C)C(=O)[C@H](CCCCC)N(C)C(=O)[C@@H](C)N(C)C1=O (cyclo([Ahp(2)][dNMeA][NMeAhp(2)][dNMeA][NMeAhp(2)][dNMeA][NMeAhp(2)][dNMeA]))"
  class assignment: "inactive"

Query :: What did the test return for CCCCC[C@@H]1OC(=O)[C@@H](C)N(C)C(=O)[C@H](CCCCC)OC(=O)[C@@H](C)N(C)C(=O)[C@H](CCCCC)N(C)C(=O)[C@@H](C)N(C)C(=O)[C@H](CCCCC)OC(=O)[C@@H](C)N(C)C1=O ?
Result :: active
